molecular target: BRD4-BD1 (Homo sapiens (Human)); assay: BRD4-H4 tetraacetylated peptide inhibition AlphaScreen; conditions: GST-BRD4-BD1 (aa 44-168) with biotinylated Acetyl-Histone H4 (Lys5, 8, 12, 16) peptide
pIC50: −log10 of the molar value.
Assay endpoint: pIC50

Test smiles | Tested system | Quantitative result
Cc1nnc2c(NC(C)C)nc(-c3nc4cnccc4n3Cc3ccccn3)cn12 | BRD4-BD1 (Homo sapiens (Human)) | 7.85
CNc1nc(-c2nc3ccc(N4CCOCC4)cc3n2Cc2cccnc2)cn2c(C)nnc12 | BRD4-BD1 (Homo sapiens (Human)) | 8.30
Cc1nnc2c(N[C@@H]3CCOC3)nc(-c3nc4cnc(N5CCOCC5)cc4n3Cc3ccccn3)cn12 | BRD4-BD1 (Homo sapiens (Human)) | 7.70
Cc1nc(-c2nc3cnc(N4CCN(C)CC4)cc3n2Cc2ccccc2)cn2c(C)nnc12 | BRD4-BD1 (Homo sapiens (Human)) | 7.85

1. CNc1nc(-c2nc3cc(C4CCOCC4)ccc3n2Cc2ccccn2)cn2c(C)nnc12
2. Cc1nnc2c(NC(C)C)nc(-c3nc4cnc(N5CCOC[C@@H]5C)cc4n3[C@@H](C)c3ccccn3)cn12
Lookup: Hi, I'm comparing 1 with 2 and wondering which one has the bigger number for pIC50. Any idea? Please reply using the label of the selected record.
Found: 1

A. CNc1nc(-c2nc(C)c(C)n2Cc2ccccc2)cn2c(C)nnc12
B. COCCN1CCC(Nc2nc(-c3nc4ccc(N5CCOCC5)cc4n3Cc3ccccc3)cn3c(C)nnc23)CC1
C. Cc1cc2c(cn1)nc(-c1cn3c(C)nnc3c(NC(C)C)n1)n2Cc1ccccn1
D. COCCN1CCC(Nc2nc(-c3nc4ccccc4n3[C@H](C)c3ccccc3)cn3c(C)nnc23)CC1
Lookup: Rank order required: pIC50, descending. List labels; respect the requested ordering.
Found: B, A, C, D

I. Cc1cccc(Cn2c(-c3cn4c(C)nnc4c(NC(C)C)n3)nc3cnc(N4CCOCC4)cc32)n1
II. COCCN1CCC(Nc2nc(-c3nc4ccccc4n3Cc3ccc(F)c(F)c3)cn3c(C)nnc23)CC1
Lookup: Hi, I'm comparing I with II and wondering which one has the bigger number for pIC50. Any idea? Please reply using the label of the selected record.
Found: II
